method_notes: in vitro
experimental_parameters: chlorocebus sabaeus, Vero E6 (Vero C1008) cells, pCC50
Under this convention, true denotes CC50 at 48 h strictly below 10 µM and false denotes CC50 at 48 h at or above 10 µM.

compound: COc1cc2c3cc1Oc1cc(ccc1O)C[C@@H]1c4c(cc(OC)c(O)c4Oc4ccc(cc4)C[C@H]3N(C)CC2)CCN1C
category: false
//
compound: COc1ccc2c(c1)c(CC(=O)O)c(C)n2C(=O)c1ccc(Cl)cc1
category: false
//
compound: CCC(=O)c1ccc2c(c1)N(CCCN1CCN(CCO)CC1)c1ccccc1S2
category: true
//
compound: CCN(CCO)CCC[C@H](C)Nc1ccnc2cc(Cl)ccc12
category: false
//
compound: CC1(C)S[C@@H]2[C@H](NC(=O)C(C(=O)O)c3ccccc3)C(=O)N2[C@H]1C(=O)O (stereo not given in full)
category: false
//
compound: CNC[C@H]1C[C@@H]2c3ccccc3Cc3ccc(F)cc3[C@H]2O1
category: false
//
compound: CCN(CC)CCNC(=O)c1ccc(NS(C)(=O)=O)cc1 [SEMATILIDE]
category: false
//
compound: COc1cc(C(=O)OCCN2CCN(CCCN3c4ccccc4Sc4ccc(Cl)cc43)CC2)cc(OC)c1OC [METOFENAZATE]
category: false
//
compound: CC(C)[C@H](N/C(=N\S(=O)(=O)c1ccc(Cl)cc1)N1C[C@@H](c2ccccc2)C(c2ccc(Cl)cc2)=N1)C(N)=O
category: false
//
compound: COc1ccc2c(c1)CCC(c1ccccc1)=C2c1ccc(OCCN2CCCC2)cc1
category: true
//
compound: COC(=O)C1=C(C)NC(C)=C(C(=O)OC2CCCN(Cc3ccccc3)C2)C1c1cccc([N+](=O)[O-])c1 (stereo not given)
category: false
//
compound: CN1CCN(CCCN2c3ccccc3Sc3ccc(S(=O)(=O)N(C)C)cc32)CC1
category: true

###

method_notes: in vitro
experimental_parameters: chlorocebus sabaeus, Vero E6 (Vero C1008) cells, CC50
Under this convention, criterion met denotes CC50 at 48 h strictly below 7 µM and criterion not met denotes CC50 at 48 h at or above 7 µM.

molecule: CN1CCC(COc2cnc(-c3cccc(Cn4nc(-c5cccc(C#N)c5)ccc4=O)c3)nc2)CC1
category: criterion met

molecule: CCN(CC)CCNC(=O)c1ccc(NS(C)(=O)=O)cc1 [SEMATILIDE]
category: criterion not met

molecule: C[C@H]1[C@H]2CC[C@H]3[C@@H]4CC=C5C[C@@H](N(C)C)CC[C@]5(C)[C@H]4CC[C@]23CN1C
category: criterion not met

molecule: CC(=O)c1ccc2c(c1)N(CCCN(C)C)c1ccccc1S2
category: criterion not met

molecule: CCOc1cc2ncc(C#N)c(Nc3ccc(OCc4ccccn4)c(Cl)c3)c2cc1NC(=O)/C=C/CN(C)C
category: criterion not met

molecule: OC(CNCC(O)C1CCc2cc(F)ccc2O1)C1CCc2cc(F)ccc2O1 (stereo not drawn)
category: criterion not met

molecule: CCN(CC)CCNC(=O)c1cc(Cl)c(NC(=O)COc2ccc(Cl)cc2)cc1OC [CLOXACEPRIDE]
category: criterion met

###

Test system: SARS-CoV-2
method_notes: microbe, parasite or virus in culture
Format: functional, organism-based, Chlorocebus sabaeus, Vero C1008
experimental_parameters: Severe acute respiratory syndrome coronavirus 2, Vero C1008, 48 h; read-out: pIC50 (converted)
Measured IC50, listed per entry for reference.

compound: Cc1cccc(C)c1OCC(=O)N[C@@H](Cc1ccccc1)[C@@H](O)C[C@H](Cc1ccccc1)NC(=O)[C@H](C(C)C)N1CCCNC1=O [LOPINAVIR]
IC50: ~15.5 µM

compound: Cc1ccc(C(=O)Oc2ccc(C(O)CNC(C)(C)C)cc2OC(=O)c2ccc(C)cc2)cc1 (configuration not stated) [BITOLTEROL]
IC50: > 100 µM

compound: COc1cc(/C=C/C(=O)CC(=O)/C=C/c2ccc(O)c(OC)c2)ccc1O [CURCUMIN]
IC50: > 100 µM

compound: Cc1[nH]c(/C=C2\C(=O)Nc3ccccc32)c(C)c1CCC(=O)O [ORANTINIB]
IC50: > 25.1 µM

compound: C#C[C@]1(O)CC[C@H]2[C@@H]3CCC4=CCCC[C@@H]4[C@H]3CC[C@@]21C [LYNESTRENOL]
IC50: > 50.1 µM

compound: CN1CC(=O)N=C1NC(=O)Nc1cccc(Cl)c1 [FENOBAM ANHYDROUS]
IC50: > 25.1 µM

compound: CNCC[C@@H](Oc1cccc2ccccc12)c1cccs1 [(R)-DULOXETINE]
IC50: > 100 µM

compound: COc1cccc2c1C(=O)c1c(O)c3c(c(O)c1C2=O)C[C@@](O)(C(=O)CO)C[C@@H]3O[C@H]1C[C@H](N)[C@@H](O)[C@H](C)O1 [EPIRUBICIN]
IC50: > 100 µM

compound: CCC1(CC)C(=O)NCC(C)C1=O (configuration not stated) [METHYPRYLON]
IC50: > 25.1 µM

compound: O=C1c2c(O)cccc2Cc2cccc(O)c21 [ANTHRALIN]
IC50: > 100 µM

compound: Cc1c(O)cccc1C(=O)N[C@@H](CSc1ccccc1)[C@H](O)CN1C[C@H]2CCCC[C@H]2C[C@H]1C(=O)NC(C)(C)C
IC50: ~3.98 µM

compound: CN(C[C@@H]1COCCO1)S(=O)(=O)Nc1ccc2ccc3ncc(-c4cnn(C)c4)cc3c(=O)c2c1 [MK-2461]
IC50: > 20 µM

compound: CC(CN1c2ccccc2Sc2ccccc21)N(C)C (configuration not stated) [PROMETHAZINE]
IC50: > 100 µM

compound: Cc1ccccc1CN1CCN(CCOC(c2ccccc2)c2ccccc2Cl)CC1 (configuration not stated) [CHLORBENZOXAMINE]
IC50: > 25.1 µM

compound: CCN(CC)CCCC(C)Nc1ccnc2cc(Cl)ccc12 (configuration not stated) [CHLOROQUINE]
IC50: ~9.55 µM

compound: Nc1ccc2cc3ccc(N)cc3nc2c1 [PROFLAVINE]
IC50: > 25.1 µM

compound: COc1nc(N)nc2c1ncn2[C@@H]1O[C@H](COP(=O)(N[C@@H](C)C(=O)OCC(C)(C)C)Oc2cccc3ccccc23)[C@@H](O)[C@@]1(C)O (some centres not stated) [BMS-986094]
IC50: > 20 µM

###

method_notes: in vitro
experimental_parameters: chlorocebus sabaeus, Vero E6 (Vero C1008) cells, pCC50
Measured CC50 at 48 h, listed per entry for reference.

compound: COc1cc2c(Oc3ccc4[nH]c(C)cc4c3F)ccnc2cc1OCC1(N)CC1 [CATEQUENTINIB]
unit_name: µM
CC50 at 48 h: 5.25
--
compound: CC(C)(Cc1c[nH]c2ccccc12)NCC(O)COc1ccccc1C#N (centres undefined) [BUCINDOLOL]
unit_name: µM
CC50 at 48 h: 30.9
--
compound: COc1cccc([C@@H](C)NCCCc2ccccc2Cl)c1
unit_name: µM
CC50 at 48 h: 28.2
--
compound: CC(=O)[C@@]12OC(C)(c3ccccc3)O[C@@H]1CC1C3CCC4=CC(=O)CCC4(C)C3CCC12C (some centres undefined)
unit_name: µM
CC50 at 48 h: 15.5
--
compound: CN(C)C(=O)c1cc2cnc(Nc3ccc(N4CCNCC4)cn3)nc2n1C1CCCC1 [RIBOCICLIB]
unit_name: µM
CC50 at 48 h: 38.9
--
compound: COc1ccc2nc3c(c(N)c2c1)CCCC3
unit_name: µM
CC50 at 48 h: 47.9
--
compound: CCCCCCCCNC(C)C(O)c1ccc(SC(C)C)cc1 (centres undefined) [SULOCTIDIL]
unit_name: µM
CC50 at 48 h: 3.24
--
compound: CCOC(=O)C1=C(C)NC(C)=C(C(=O)OCC)C1c1ccccc1/C=C/C(=O)OC(C)(C)C [LACIDIPINE]
unit_name: µM
CC50 at 48 h: 7.24

###

method_notes: in vitro
experimental_parameters: chlorocebus sabaeus, Vero E6 (Vero C1008) cells, pCC50
Under this convention, rule met denotes CC50 at 48 h strictly below 7 µM and rule not met denotes CC50 at 48 h at or above 7 µM.

compound: COC(=O)N[C@H](C(=O)N1CCC[C@H]1c1nc(-c2ccc3cc(-c4ccc5[nH]c([C@@H]6CCCN6C(=O)[C@@H](NC(=O)OC)C(C)C)nc5c4)ccc3c2)c[nH]1)C(C)C
category: rule not met

compound: COc1ccc(CCN2CCC(Nc3nc4ccccc4n3Cc3ccc(F)cc3)CC2)cc1
category: rule not met

compound: O=C(NO)c1ccc(C2=Nc3ccccc3Oc3ccccc32)cc1
category: rule met

compound: CN(C)S(=O)(=O)c1ccc2c(c1)N(CCCN1CCC(CCO)CC1)c1ccccc1S2
category: rule not met

compound: OC1(c2ccc(Cl)c(C(F)(F)F)c2)CCN(CCCC(c2ccc(F)cc2)c2ccc(F)cc2)CC1
category: rule met

compound: Clc1ccc(C(c2ccccc2)N2CCN(C/C=C/c3ccccc3)CC2)cc1 (stereo not drawn)
category: rule not met

compound: CN1CCC(=C2c3ccccc3Sc3ccccc32)CC1
category: rule not met

meta.source: ChEMBL document CHEMBL4651402
